# Protocol: Cytotoxicity against human A549 cells assessed as cell viability recovery at 18 uM by MTT assay relative to untreated control
# Assay type: cell-based
# Protocol conditions: read-out: Activity
Measurement name: viability at 18 µM (%)
Lab book: enter the figure in %, no units written.

Query "CC(C)Nc1nc(NC2CCCCC2)c2ccccc2n1" yields viability at 18 µM of 98.6

----------
# Protocol conditions: pampa, pH 4
Measurement name: permeability (×10⁻⁶ cm/s)
Write it as a number; the unit ×10⁻⁶ cm/s goes unstated.

Record "CCCCNc1nc(NCc2ccccc2)c2ccccc2n1" . Reported permeability: 161

What the record says about "CC(C)Nc1nc(NC2CCCCC2)c2ccccc2n1" : permeability is 112

"c1ccc(CNc2nc(NCc3ccccc3)c3ccccc3n2)cc1" has a reported permeability of 312
